Readings of kon for the listed binders
# tested_target: T1, cMetECDHis (human, UniProt P08581 25-932, limits assumed, biotinylated in the cross-block ELISA of Example 17)
# T1 construct: Expressed in HEK-293F cells; also called soluble cMetECDHis; biotinylated cMetECDHis
# experiment_notes: BLI (Octet); antibody captured, cMetECDHis in solution
Respond with the bare value in M⁻¹ s⁻¹.

| binder | numeric_result |
| --- | --- |
| anti-c-Met HuMab 045 (IgG1) (antibody, V domains shown, also called TH1016-045; PC1016-045) VH: EVQLLESGGGLVQPGGSLRLSCAASGFTFSSYAMSWVRQAPGKGLEWVSVISGSGGITYYADSVKGRFTISRDNSKNTLYLQMNSLRAEDTAVYYCARDRGWGSDYWGQGTLVTVSS VL: EIVLTQSPATLSLSPGERATLSCRASQSVSSYLAWYQQKPGQAPRLLIYDASNRATGIPARFSGSGSGTDFTLTISSLEPEDFAVYYCQQRSNWPFTFGPGTKVDIK | 721000 |
| anti-c-Met HuMab 005 (IgG1) (antibody, V domains shown, also called TH1016-005; PC1016-005) VH: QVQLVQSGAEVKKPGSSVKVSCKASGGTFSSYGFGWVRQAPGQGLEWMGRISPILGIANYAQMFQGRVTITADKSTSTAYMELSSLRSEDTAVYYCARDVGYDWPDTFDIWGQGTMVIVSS VL: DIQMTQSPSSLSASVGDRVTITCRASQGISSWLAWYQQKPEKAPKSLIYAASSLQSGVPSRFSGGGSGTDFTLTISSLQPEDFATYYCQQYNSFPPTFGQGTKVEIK | 318000 |

Please examine the following record next.
For record anti-c-Met HuMab 096 (IgG1) (antibody, V domains shown, also called TH1016-096; PC1016-096) VH: EVQLVQSGAEVKKPGESLKISCKGSGYSFTSYWIGWVRQMPGKGLEWMGIIYPGDSDTRYSPSFQGQVTISADKSISTAYLQWSSLKASDTAMYYCARQEITGDFDYWGQGTLVTVSS VL: AIQLTQSPSSLSASVGDRVTITCRASQGISSALAWYQQKPGKAPNLLIYAASSLESGVPSRFSGSGSGTDFTLTISSLQPEDFATYYCQQFNSYPLTFGGGTKVEIK the listed kon is 196000

Data origin: patent US20150329642A1
